# System: rabbit skeletal myofibrils (fast skeletal myofibrils)
# Experiment Summary: Activation of fast skeletal myofibrils (PUMA assay, PK/LDH-coupled ATPase at pCa25)
# Assay type: biochemical
# Reported Conditions: AC1.4 determined according to the procedure of Example 39; reported as class symbols
# Description: Preparation of Fast Skeletal Myofibrils. […] Fast fiber activators were identified by measuring the enzymatic activity of muscle myofibril preparations using the proprietary PUMA™ (see, e.g., U.S. Pat. Nos. 6,410,254, 6,743,599, 7,202,051, and 7,378,254) assay system. […] This assay regenerates myosin-produced ADP into ATP by oxidizing NADH, producing an absorbance change at 340 nm. […]
Measured Attribute: Mean AC1.4

Past entries and their recorded results:
Compound	Mean AC1.4
CC(=O)Nc1nc(-c2ccc(NCC3(c4ncccc4F)CCC3)nn2)c[nH]1	D (D=>20 uM)
CC(C)(CNc1ccc(-c2c[nH]c(N)n2)nn1)c1ccc(F)cc1	B (B=1-10 uM)
CC(C)(CNc1ccc(-c2ccc3[nH]nc(N)c3c2)nn1)c1cccc(C#N)c1	A (A=<1 uM)
CC(C)(CNc1ccc(-c2ccc(F)cc2)nn1)c1ccc(F)cc1	B (B=1-10 uM)
CC(C)(CNc1ccc(-c2ccc3[nH]c(=O)[nH]c(=O)c3c2)nn1)c1ccc(F)cc1	B (B=1-10 uM)

Shifting focus to the compound that follows.
Find Mean AC1.4 (rabbit skeletal myofibrils (fast skeletal myofibrils)) for the entry `CC(C)(C)OC(=O)N(CC(C)(C)c1ncccc1F)c1ccc(-c2cccc(C(N)=O)c2)nn1`
D (D=>20 uM)

====

# System: rabbit skeletal myofibrils (fast skeletal myofibrils)
# Experiment Summary: Activation of fast skeletal myofibrils (PUMA assay, PK/LDH-coupled ATPase at pCa25)
# Type: biochemical
# Reported Conditions: median AC1.4 class, procedure of Example 39
Measured Attribute: Mean AC1.4

Past entries and their recorded results:
Compound	Measured Attribute	Assay Value
Fc1ccc(C2(Nc3ccc(-c4cn[nH]c4)nn3)CCC2)cc1	Mean AC1.4	B (B=1-10 uM)
CNC(=O)c1cc(-c2ccc(NC3(c4ccc(F)cc4)CCC3)nn2)ccn1	Mean AC1.4	B (B=1-10 uM)
CS(=O)(=O)NCc1cnc(-c2ccc(NCC3(c4ncccc4F)CCC3)nn2)s1	Mean AC1.4	B (B=1-10 uM)
CS(=O)(=O)Nc1ccc(-c2ccc(NC3(c4ccc(F)cc4)CCC3)nn2)cc1	Mean AC1.4	B (B=1-10 uM)
NC(=O)c1ncc(-c2ccc(NCC3(c4ncccc4F)CCC3)nn2)o1	Mean AC1.4	B (B=1-10 uM)

Find Mean AC1.4 (rabbit skeletal myofibrils (fast skeletal myofibrils)) for the entry `O=C1CC[C@@H](C(=O)NCc2cnc(-c3ccc(NCC4(c5ncccc5F)CCC4)nn3)s2)N1`
A (A=<1 uM)

Find Mean AC1.4 (rabbit skeletal myofibrils (fast skeletal myofibrils)) for the entry `NC(=O)c1nc(-c2ccc(NCC3(c4ncccc4F)CCC3)nn2)cs1`
B (B=1-10 uM)

Find Mean AC1.4 (rabbit skeletal myofibrils (fast skeletal myofibrils)) for the entry `CC(C)(Nc1ccc(-c2ccc3[nH]ncc3c2)nn1)c1ccccc1`
B (B=1-10 uM)

====

# Tested on: rabbit skeletal myofibrils (fast skeletal myofibrils)
# Experiment Summary: Activation of fast skeletal myofibrils (PUMA assay, PK/LDH-coupled ATPase at pCa25)
# Format: biochemical
# Reported Conditions: median AC1.4 reported as class; procedure of Example 39
Measured Attribute: Mean AC1.4

Past entries and their recorded results:
Molecule	Mean AC1.4
Cc1cc(NCC2(c3ncccc3F)CCC2)nnc1-c1ncc(CC(N)=O)s1	B (B=1-10 uM)
NC(=O)Cc1nnc(NC(=O)c2ccc(NCC3(c4ncccc4F)CCC3)nn2)s1	D (D=>20 uM)
NC1(C(=O)NCc2cnc(-c3ccc(NCC4(c5ncccc5F)CCC4)nn3)s2)COC1	A (A=<1 uM)
COC(=O)c1csc(NC(=O)c2ccc(NCC3(c4ncccc4F)CCC3)nn2)n1	B (B=1-10 uM)
CC(=O)NCc1ccc(F)c(-c2ccc(NC[C@]3(c4ncccc4F)C[C@H](F)C3)nn2)c1	B (B=1-10 uM)

// lookup Mean AC1.4 for `Cn1nccc1CNC(=O)c1ccc(NCC2(c3ncccc3F)CCC2)nn1`
D (D=>20 uM)

// lookup Mean AC1.4 for `CCOC(=O)c1cnc(NC(=O)c2ccc(NCC3(c4ncccc4F)CCC3)nn2)s1`
D (D=>20 uM)

// lookup Mean AC1.4 for `O=C(NCc1cnc(-c2ccc(NCC3(c4ncccc4F)CCC3)nn2)s1)[C@@H]1CCN1`
A (A=<1 uM)

// lookup Mean AC1.4 for `Fc1cccnc1[C@]1(CNc2ccc(-c3ccc(NC4CC4)nc3)nn2)C[C@@H](F)C1`
D (D=>20 uM)

// lookup Mean AC1.4 for `COC(=O)CCc1cnc(-c2ccc(NCC3(c4ncccc4F)CCC3)nn2)s1`
B (B=1-10 uM)

// lookup Mean AC1.4 for NC(=O)C1CCCC1NC(=O)c1ccc(NCC2(c3ncccc3F)CCC2)nn1 (stereo not shown)
D (D=>20 uM)

// lookup Mean AC1.4 for `C[C@@H](O)C(=O)NCc1cnc(-c2ccc(NCC3(c4ncccc4F)CCC3)nn2)s1`
A (A=<1 uM)

====

# Test system: rabbit skeletal myofibrils (fast skeletal myofibrils)
# Experiment Summary: Activation of fast skeletal myofibrils (PUMA assay, PK/LDH-coupled ATPase at pCa25)
# Format: biochemical
# Reported Conditions: median AC1.4 reported as class; procedure of Example 39
Measured Attribute: Mean AC1.4

Past entries and their recorded results:
Molecule	Measured Attribute	Assay Value
CC(=O)NCc1cccc(-c2ccc(NC[C@]3(c4ncccc4F)C[C@H](F)C3)nn2)c1	Mean AC1.4	B (B=1-10 uM)
NC(=O)c1cc(O)cc(-c2ccc(NC[C@]3(c4ncccc4F)C[C@H](F)C3)nn2)c1	Mean AC1.4	A (A=<1 uM)
NC(=O)Cc1cnc(-c2ccc(NC[C@]3(c4ncccc4Cl)C[C@H](F)C3)nn2)s1	Mean AC1.4	B (B=1-10 uM)
O=C(O)Cc1cnc(-c2ccc(NCC3(c4ncccc4F)CCC3)nn2)s1	Mean AC1.4	B (B=1-10 uM)
NC(=O)c1ccc(F)c(-c2ccc(NC[C@]3(c4ncccc4F)C[C@H](F)C3)nn2)c1O	Mean AC1.4	A (A=<1 uM)

// lookup Mean AC1.4 for `Cn1ccc(CNC(=O)c2ccc(NCC3(c4ncccc4F)CCC3)nn2)n1`
D (D=>20 uM)

====

# Test system: rabbit skeletal myofibrils (fast skeletal myofibrils)
# Experiment Summary: Activation of fast skeletal myofibrils (PUMA assay, PK/LDH-coupled ATPase at pCa25)
# Type: biochemical
# Reported Conditions: AC1.4 determined according to the procedure of Example 39; reported as class symbols
Measured Attribute: Mean AC1.4

Past entries and their recorded results:
Molecule	Measured Attribute	Assay Value
CC(CNc1ccc(-c2cccc(C(N)=O)c2)nn1)N1CCCCC1=O (stereo not shown)	Mean AC1.4	D (D=>20 uM)
CC(C)(CNc1ccc(C(=O)NCC(N)=O)nn1)c1ccc(F)cc1	Mean AC1.4	D (D=>20 uM)
NCC(=O)Nc1n[nH]c2ccc(-c3ccc(NCC4(c5ncccc5F)CCC4)nn3)cc12	Mean AC1.4	B (B=1-10 uM)
O=C(O)c1cc(-c2ccc(NCC3(c4ncccc4F)CCC3)nn2)ccc1F	Mean AC1.4	B (B=1-10 uM)
CC(C)(CNc1ccc(C(=O)NCCC(N)=O)nn1)c1ccc(F)cc1	Mean AC1.4	D (D=>20 uM)

// lookup Mean AC1.4 for `CC(C)(CNc1ccc(-c2ccc3[nH]nc(N)c3c2)nn1)c1ccc(CO)cc1`
D (D=>20 uM)

// lookup Mean AC1.4 for `CC(C)(CNc1ccc(-c2cccnc2)nn1)c1ccc(F)cc1`
B (B=1-10 uM)

// lookup Mean AC1.4 for `CC(C)(CNc1ccc(-c2ccc3[nH]c(O)nc3c2)nn1)c1ncccc1F`
A (A=<1 uM)

// lookup Mean AC1.4 for `Nc1n[nH]c2ccc(-c3ccc(NCC4(c5ccc(F)cn5)CCC4)nn3)cc12`
A (A=<1 uM)

// lookup Mean AC1.4 for `Cc1ccc(CCNc2ccc(-c3cccc(C(N)=O)c3)nn2)cc1`
C (C=10-20 uM)

// lookup Mean AC1.4 for CC(C)(CNc1ccc(-c2cccc(C(=O)NCC(O)CO)c2)nn1)c1ccc(F)cc1 (stereo not shown)
B (B=1-10 uM)

// lookup Mean AC1.4 for `CC(C)(CNc1ccc(-c2cc(N)[nH]n2)nn1)c1ccc(F)cc1`
B (B=1-10 uM)

// lookup Mean AC1.4 for `CC(C)(CNc1ccc(-c2ccc3[nH]c(=O)c(=O)[nH]c3c2)nn1)c1ccc(F)cc1`
A (A=<1 uM)

// lookup Mean AC1.4 for `CC(C)(CNc1ccc(C(=O)N2CCOCC2)nn1)c1ccc(F)cc1`
D (D=>20 uM)

// lookup Mean AC1.4 for `Cn1ncc2ccc(-c3ccc(NCC(C)(C)c4ccc(F)cc4)nn3)cc21`
B (B=1-10 uM)

// lookup Mean AC1.4 for `NC(=O)c1cccc(-c2ccc(NCC3(c4cc(C(N)=O)ccn4)CCC3)nn2)c1`
D (D=>20 uM)

// lookup Mean AC1.4 for `Fc1cccnc1C1(CNc2ccc(-c3ccc4n[nH]nc4c3)nn2)CCC1`
A (A=<1 uM)

// lookup Mean AC1.4 for `CC(C)(CNc1ccc(-c2ccc3[nH]c(=O)[nH]c3c2)nn1)c1ccccc1CO`
B (B=1-10 uM)

// lookup Mean AC1.4 for `NC(=O)c1cccc(-c2ccc(NCC3(c4ccc(F)cc4)COC3)nn2)c1`
D (D=>20 uM)

This collection of values is drawn from patent US10076519B2.
